Reported protein stability index values for a set of sequences
tested on: Saccharomyces cerevisiae; assay: protein stability index of tFT-peptide fusion (C-terminal peptide) (PSI (0-1 scale)); higher = more stable (slower turnover); conditions: genetic background: wild type; temperature: 30 C;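 further: PSI is a weighted mean of sequencing reads over stability bins, variants kept only with over 10 reads, mCherry proximal and sfGFP distal, peptide attached via GGGS linker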
The reply should be a number, written without any unit.

sequence STNNSGRPMSFL , protein stability index observed: 0.664

sequence LSLVIFIFLYCR , protein stability index observed: 0.227

sequence PPRPRPPSSPST , protein stability index observed: 0.641

sequence LPPPPLLIPLPT , protein stability index observed: 0.605

sequence TRRKVKYTELYQ , protein stability index observed: 0.69

sequence PPLPPPHLAFLH , protein stability index observed: 0.685

sequence CDQVSDGSMGTV , protein stability index observed: 0.634

sequence CKEGLGSGRWGR , protein stability index observed: 0.717

sequence GGLWRRLCLGVG , protein stability index observed: 0.329

sequence PDRSTILHISGF , protein stability index observed: 0.699

sequence GGNKETKITRIE , protein stability index observed: 0.698

sequence VSGLDSLHPSSN , protein stability index observed: 0.717

sequence FCVGVVIQLSGV , protein stability index observed: 0.415

sequence SPVFYYCPGYVD , protein stability index observed: 0.702

---

test system: Saccharomyces cerevisiae; test: protein stability index of tFT-peptide fusion (C-terminal peptide) (PSI (0-1 scale)); higher = more stable (slower turnover); settings: genetic background: cdc34-1; temperature: 37 C
Assign Yes to entries whose protein stability index meets or exceeds 0.6; assign No to the rest.

Would you say PPLPPVCPSPSL shows protein stability index at minimum 0.6? Yes

Would you say APPRSLSPPLLS shows protein stability index at minimum 0.6? Yes

---

Reported protein stability index values for a set of sequences
tested on: Saccharomyces cerevisiae; assay: protein stability index of tFT-peptide fusion (C-terminal peptide) (PSI (0-1 scale)); higher = more stable (slower turnover); conditions: genetic background: wild type; temperature: 30 C

Reference set, count: 3
SRGTKAERISIG ... 0.654
GCGLVGVVTGRD ... 0.71
DSFPAGVLVQSK ... 0.664

sequence SPRLPPPLFLPL , protein stability index observed: 0.638

sequence GFGWYVPESWSS , protein stability index observed: 0.616

sequence YLCEATFLLTWL , protein stability index observed: 0.618

---

Reported protein stability index values for a set of sequences
tested on: Saccharomyces cerevisiae; test: protein stability index of tFT-peptide fusion (C-terminal peptide) (PSI (0-1 scale)); higher = more stable (slower turnover); conditions: genetic background: wild type; temperature: 30 C
The reply should be a number, written without any unit.

Reference set, count: 6
KPYKTYKIIKRE ... 0.658
HEKTGNNHKRGH ... 0.628
GVEVCEGDGPLK ... 0.669
VSSCSGVLLCVP ... 0.544
FLVFFRRPSRFF ... 0.586
WGLGWRGALVAV ... 0.385

sequence FKSYNNDLQDRI , protein stability index observed: 0.728

sequence KSDSRISGTVVV , protein stability index observed: 0.652

sequence KGVWLGGGCGLR , protein stability index observed: 0.685

sequence RPPVPSLLPEPT , protein stability index observed: 0.631

sequence LFIFYCFFFLVR , protein stability index observed: 0.352
